Each entry below lists one item and its recorded cleaved RNA product abundance value.
system: Bacillus subtilis; experiment: cleaved RNA product abundance (RNA/gDNA barcode ratio) relative to median wild-type variant (ratio to wild type); higher = more accumulation of the downstream cleavage product; conditions: experiment (reporter, strain, medium): exp 8a: truncated aprE reporter, strain BJT201 with 2% xylose (RNase J1 expressed); cleavage site: glnRA (positions -5 to +31 mutated)

SEQUENCE_ENTRY	SYSTEM_UNDER_TEST	cleaved RNA product abundance
CGACATGTCCCGCTTCTTTCATTAATCCGTTAGAAACTGTTTTGCTATATACACTTACCTTTTAAGAGGAGGAAT	Bacillus subtilis	0.157
CGACATGTCCCGCTTCTTTCATTAATCCGTTAGCAACTGTTTTGCTAGATACATTTACTTTTTAAGAGGAGGAAT	Bacillus subtilis	0.636
CGACATGTCCCGCTTCTTTCATTAATCCGTTAGCAAATGTTTGGCTATATACATTTACCTTTTAAGAGGAGGAAT	Bacillus subtilis	0.43
CGACATGTCCCGCTTCTTTCATTATTCCGTTTGCAACTGTTTTGCTATATACATTTACCATTTAAGAGGAGGAAT	Bacillus subtilis	0.356
CGACATGTCCCGCTTCTTTCATTAATCCATTAGCAACTGTTTTGCTATATACATCTACCTTTTAAGAGGAGGAAT	Bacillus subtilis	0.942
CGACATGTCCCGCTTCTTTCATAATCCGTTAGCAACTGTTTTGCTATATACATTTACCTTTTAAGAGGAGGAATT	Bacillus subtilis	1.13
CGACATGTCCCGCTTCTTTCATTAATCCGATAGCAACTGTTTTGCTATATAGATTTACCTTTTAAGAGGAGGAAT	Bacillus subtilis	1.02

----------
tested on: Bacillus subtilis; assay: cleaved RNA product abundance (RNA/gDNA barcode ratio) relative to median wild-type variant (ratio to wild type); higher = more accumulation of the downstream cleavage product; conditions: experiment (reporter, strain, medium): exp 4a: truncated aprE reporter, strain BJT201 with 2% xylose (RNase J1 expressed); cleavage site: cggR-gapA (positions -7 to +36 mutated)

SEQUENCE_ENTRY	SYSTEM_UNDER_TEST	cleaved RNA product abundance
ACAGACGAAGGAGCCGCAAAGGAGTTATTAAGGGATGAATAATCCCTCAATATAAATATCTCTCACTTATTTAAA	Bacillus subtilis	0.982
ACAGACGAAGGAGCCGCAAAGAAGTTATTAAGGGATGAACAATTCCTCAATATAAATATCTCTCACTTATTTAAA	Bacillus subtilis	0.44
ACAGACGAAGGAGCCGCAAAGAAGTTATTAAGGGATGAATAATGCCTCACTATAAATATCTCTCACTTATTTAAA	Bacillus subtilis	0.142
ACAGACGAAGGAGCCGCAAAGAAGTTATTAAGAGAAGAATAATCCCTCAATATAAATATCTCTCACTTATTTAAA	Bacillus subtilis	0.101
ACAGACGAAGGAGCCGCAAAGAAGTGATTAAGGGATGAATAATCCTTCAATATAAATATCTCTCACTTATTTAAA	Bacillus subtilis	0.342
ACAGACGAAGGAGCCGCAAAGAAGATAATAAGGGATGAATAATCCCTCAATATAAATATCTCTCACTTATTTAAA	Bacillus subtilis	0.227
ACAGACGAAGGAGCCGCAAAGAAGTTATTAAGGCATAAATAATCCCTCAATATAAATATCTCTCACTTATTTAAA	Bacillus subtilis	0.107
